Target: HRgpA-6H (Porphyromonas gingivalis) (UniProt P28784)
Assay: ELISA, Fab FASEBA supernatant on coated HRgpA-6H (0.0625 ug/ml)
property: Ratio OD(Variant)/OD(WT)
Number only, please.

Data request: Input KB001 parental mouse Fab VH variant K64G (Fab, V domains shown) VH: EVQLKQSGPGLVAPSQSLSITCTVSGFSLSIYSVHWVRQPPGKGLEWLGMIWGGGSSDYNSALGSRLSISKDNSKSQVFLKMNSLQTDDTAMYYCARNGNFYAMDYWGQGTSVTVSS VL: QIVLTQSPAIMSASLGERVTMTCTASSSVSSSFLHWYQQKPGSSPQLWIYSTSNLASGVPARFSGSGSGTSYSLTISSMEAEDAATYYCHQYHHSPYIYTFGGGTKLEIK , output reported Ratio OD(Variant)/OD(WT).
Data returned: 0.981

Data request: For KB001 parental mouse Fab VH variant N100Q (Fab, V domains shown) VH: EVQLKQSGPGLVAPSQSLSITCTVSGFSLSIYSVHWVRQPPGKGLEWLGMIWGGGSSDYNSALKSRLSISKDNSKSQVFLKMNSLQTDDTAMYYCARNGQFYAMDYWGQGTSVTVSS VL: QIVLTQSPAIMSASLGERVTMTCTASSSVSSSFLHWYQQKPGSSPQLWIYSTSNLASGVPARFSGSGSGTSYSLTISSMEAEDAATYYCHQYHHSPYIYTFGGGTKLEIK , write its Ratio OD(Variant)/OD(WT).
Data returned: 0.999

Data request: Recall and state the measured Ratio OD(Variant)/OD(WT) for KB001 parental mouse Fab VH variant A103C (Fab, V domains shown) VH: EVQLKQSGPGLVAPSQSLSITCTVSGFSLSIYSVHWVRQPPGKGLEWLGMIWGGGSSDYNSALKSRLSISKDNSKSQVFLKMNSLQTDDTAMYYCARNGNFYCMDYWGQGTSVTVSS VL: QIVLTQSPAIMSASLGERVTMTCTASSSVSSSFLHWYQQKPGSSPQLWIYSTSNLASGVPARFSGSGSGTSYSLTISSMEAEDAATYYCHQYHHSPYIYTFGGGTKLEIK .
Data returned: 0.893

Data request: Read the entry KB001 parental mouse Fab VH variant K64M (Fab, V domains shown) VH: EVQLKQSGPGLVAPSQSLSITCTVSGFSLSIYSVHWVRQPPGKGLEWLGMIWGGGSSDYNSALMSRLSISKDNSKSQVFLKMNSLQTDDTAMYYCARNGNFYAMDYWGQGTSVTVSS VL: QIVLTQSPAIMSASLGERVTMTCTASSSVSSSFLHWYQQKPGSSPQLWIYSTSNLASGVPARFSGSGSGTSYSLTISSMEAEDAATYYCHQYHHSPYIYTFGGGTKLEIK and write its reported Ratio OD(Variant)/OD(WT).
Data returned: 0.948

Data request: Using known records, supply Ratio OD(Variant)/OD(WT) for KB001 parental mouse Fab VH variant Y106D (Fab, V domains shown) VH: EVQLKQSGPGLVAPSQSLSITCTVSGFSLSIYSVHWVRQPPGKGLEWLGMIWGGGSSDYNSALKSRLSISKDNSKSQVFLKMNSLQTDDTAMYYCARNGNFYAMDDWGQGTSVTVSS VL: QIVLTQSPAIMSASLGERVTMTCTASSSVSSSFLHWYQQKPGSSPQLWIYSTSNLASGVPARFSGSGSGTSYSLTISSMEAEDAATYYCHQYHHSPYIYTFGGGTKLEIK
Data returned: 0.878
